- TESTED SYSTEM: hCRTH2 receptor (Homo sapiens, UniProt Q9Y5Y4)
- Construct: expressed in transfected cells; host or cells: HEK293
- MEASUREMENT PROTOCOL: Radioligand displacement assay (3H-PGD2) on hCRTH2 receptor membranes
- Format: binding
- TEST SETTINGS: antagonistic activity, 3H-PGD2 radioligand displacement, HEK293-hCRTH2 membranes
pIC50: −log10 of the molar value.
Quick rule: pIC50 of at least 8 means T, below that means F.

Check out these entries, answers already filled in.
[
  {
    "COMPOUND": "O=C(O)COc1ccc(Cl)cc1C1c2ccccc2CN1C(=O)CCn1ncc2ccc(Cl)cc21 (stereo not shown)",
    "TESTED SYSTEM": "hCRTH2 receptor (Homo sapiens, UniProt Q9Y5Y4)",
    "GROUP LABEL": "F"
  },
  {
    "COMPOUND": "Cc1ccccc1CCC(=O)N1CCc2cc(F)ccc2C1c1cc(Cl)ccc1OCC(=O)O (racemic)",
    "TESTED SYSTEM": "hCRTH2 receptor (Homo sapiens, UniProt Q9Y5Y4)",
    "GROUP LABEL": "F"
  },
  {
    "COMPOUND": "COc1ccc(COC(=O)N2CCc3ccccc3C2c2cc(Cl)ccc2OCC(=O)O)cc1 (racemic)",
    "TESTED SYSTEM": "hCRTH2 receptor (Homo sapiens, UniProt Q9Y5Y4)",
    "GROUP LABEL": "F"
  },
  {
    "COMPOUND": "O=C(O)COc1ccc(Cl)cc1[C@@H]1c2ccc(F)cc2CCN1C(=O)CCn1ncc2cc(F)ccc21",
    "TESTED SYSTEM": "hCRTH2 receptor (Homo sapiens, UniProt Q9Y5Y4)",
    "GROUP LABEL": "F"
  },
  {
    "COMPOUND": "O=C(O)COc1ccc(Cl)cc1[C@@H]1c2cccc(F)c2CCN1C(=O)OCc1cccc(F)c1",
    "TESTED SYSTEM": "hCRTH2 receptor (Homo sapiens, UniProt Q9Y5Y4)",
    "GROUP LABEL": "T"
  }
]

# input Check this compound for pIC50 at or above 8: Cc1cn(CCC(=O)N2CCc3ccccc3C2c2cc(Cl)ccc2OCC(=O)O)c2ccc(F)cc12 (racemic)
# output F

----------
- TESTED SYSTEM: hCRTH2 receptor (Homo sapiens)
- Construct: expressed in transfected cells; host or cells: HEK293
- Sequence (Q9Y5Y4 1-395): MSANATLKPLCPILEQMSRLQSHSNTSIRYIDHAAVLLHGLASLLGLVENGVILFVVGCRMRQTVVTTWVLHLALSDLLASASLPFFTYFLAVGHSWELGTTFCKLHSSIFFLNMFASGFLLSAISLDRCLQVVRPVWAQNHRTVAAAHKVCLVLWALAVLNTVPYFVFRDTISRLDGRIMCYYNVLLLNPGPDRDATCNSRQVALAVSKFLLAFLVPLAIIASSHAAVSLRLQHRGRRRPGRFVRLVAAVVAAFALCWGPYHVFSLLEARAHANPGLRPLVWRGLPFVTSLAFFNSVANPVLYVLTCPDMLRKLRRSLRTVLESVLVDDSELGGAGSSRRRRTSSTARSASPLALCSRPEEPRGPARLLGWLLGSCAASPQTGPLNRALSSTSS
- MEASUREMENT PROTOCOL: Radioligand displacement assay (3H-PGD2) on hCRTH2 receptor membranes
- Format: binding
- TEST SETTINGS: antagonistic activity; 3H-PGD2 displacement on HEK293-hCRTH2 membrane fragments
- Protocol: First, recombinant HEK293-hCRTH2 cells were detached from culture plates into 5 ml buffer A/plate (Buffer A: 5 mM Tris, 1 mM MgCl2-6H2O pH=7.4) using a rubber policeman. […] This assay mix was incubated for 90 minutes at room temperature and then filtered through a GF/C filter 96-well plate which was pre-soaked for 3 hours in 0.5% polyethyleneimine (PEI). […] Then, 40 μl of Microscint-40 (Packard) was added to each well and the retained radioactivity quantified in a Topcount (Packard).
# if measured IC50 < 90 nM: Yes  # else: No

Field: example entries. Status: answers known.
[
  {
    "MOLECULE": "N#Cc1ccc(OCC(=O)O)c(C2c3ccccc3CCN2C(=O)[C@@H]2C[C@H]2c2ccccc2)c1 (mixture of isomers) [Example 218]",
    "GROUP LABEL": "Yes"
  },
  {
    "MOLECULE": "O=C(O)COc1ccc(F)cc1C1c2ccccc2CCN1C(=O)NCCc1ccccc1Cl (racemic) [Example 204]",
    "GROUP LABEL": "Yes"
  }
]

# input State whether 90 nM exceeds IC50 recorded for O=C(O)COc1ccc(F)cc1C1c2cccc(F)c2CCN1C(=O)OCc1ccccc1 (racemic) [Example 34] .
# output Yes

# input Confirm or reject: IC50 of Cc1cccc2c1CCN(C(=O)OCc1ccccc1)C2c1cc(F)ccc1OCC(=O)O (racemic) [Example 39] lies strictly below 90 nM
# output Yes

# input Determine whether this molecule shows IC50 lower than 90 nM (ties excluded): Cc1nc(COC(=O)N2CCc3ccccc3[C@H]2c2cc(Cl)ccc2OCC(=O)O)cs1 [Example 278]
# output Yes

----------
- TESTED SYSTEM: hCRTH2 receptor (Homo sapiens, UniProt Q9Y5Y4)
- Construct: expressed in transfected cells; host or cells: HEK293
- Sequence (Q9Y5Y4 1-395): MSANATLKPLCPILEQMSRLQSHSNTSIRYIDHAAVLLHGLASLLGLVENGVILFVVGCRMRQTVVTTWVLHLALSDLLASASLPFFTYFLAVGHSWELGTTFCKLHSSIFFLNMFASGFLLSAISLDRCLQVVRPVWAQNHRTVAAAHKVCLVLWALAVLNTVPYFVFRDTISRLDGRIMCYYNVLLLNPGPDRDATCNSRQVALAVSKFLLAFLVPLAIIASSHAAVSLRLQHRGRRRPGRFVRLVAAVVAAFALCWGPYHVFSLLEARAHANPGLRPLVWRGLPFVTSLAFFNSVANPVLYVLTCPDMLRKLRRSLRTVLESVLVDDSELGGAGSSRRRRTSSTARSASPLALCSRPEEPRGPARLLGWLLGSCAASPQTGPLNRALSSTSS
- MEASUREMENT PROTOCOL: Radioligand displacement assay (3H-PGD2) on hCRTH2 receptor membranes
- Type: binding
- TEST SETTINGS: antagonistic activity; 3H-PGD2 displacement on HEK293-hCRTH2 membrane fragments
Listed compounds paired with reported pIC50
pIC50 is defined as minus the log10 of a concentration measured in mol/L.

Would you please look over these solved cases?
[
  {
    "COMPOUND": "O=C(O)COc1ccc(Cl)cc1C1c2ccccc2CCN1C(=O)COCc1ccccc1 (racemic)",
    "OBSERVED": 8.00
  },
  {
    "COMPOUND": "O=C(O)COc1ccc(F)cc1C1c2ccccc2CCN1C(=O)Oc1ccccc1Cl (racemic)",
    "OBSERVED": 6.77
  }
]

Record N#Cc1ccc(OCC(=O)O)c(C2c3cc(F)cc(F)c3CCN2C(=O)OCc2ccccc2)c1 (racemic) , field pIC50: 8.08

The recorded pIC50 for O=C(O)COc1ccc(Cl)cc1C1c2ccccc2CCN1C(=O)CCc1cccc(C(F)(F)F)c1 (racemic) is 7.56

The reported value for CN(CC(=O)N1CCc2ccccc2C1c1cc(F)ccc1OCC(=O)O)S(=O)(=O)c1ccc(F)c(F)c1 (racemic) in terms of pIC50 is 6.04

Notebook: O=C(O)COc1ccc(F)cc1C1c2ccccc2CCN1C(=O)OCc1ccccc1Cl (racemic) , pIC50 read as 8.30

response.value for O=C(O)COc1ccc(Cl)cc1C1c2cccc(F)c2CCN1C(=O)OCc1ccccc1 (racemic) (field: pIC50) = 8.27

----------
- TESTED SYSTEM: hCRTH2 receptor (Homo sapiens, UniProt Q9Y5Y4)
- Construct: expressed in transfected cells; host or cells: HEK293
- MEASUREMENT PROTOCOL: Radioligand displacement assay (3H-PGD2) on hCRTH2 receptor membranes
- Assay type: binding
- TEST SETTINGS: antagonistic activity, 3H-PGD2 radioligand displacement, HEK293-hCRTH2 membranes
- Protocol: First, recombinant HEK293-hCRTH2 cells were detached from culture plates into 5 ml buffer A/plate (Buffer A: 5 mM Tris, 1 mM MgCl2-6H2O pH=7.4) using a rubber policeman. […] This assay mix was incubated for 90 minutes at room temperature and then filtered through a GF/C filter 96-well plate which was pre-soaked for 3 hours in 0.5% polyethyleneimine (PEI). […] Then, 40 μl of Microscint-40 (Packard) was added to each well and the retained radioactivity quantified in a Topcount (Packard).
PROPERTY: log10 of IC50 (log10 of the value in nM)
Would you kindly interpret these values as log10 of IC50 expressed in nM?

[
  {
    "MOLECULE": "O=C(O)COc1ccc(Cl)cc1[C@@H]1c2ccccc2CCN1C(=O)OCCc1cccc(F)c1",
    "OBSERVED": 0.43
  },
  {
    "MOLECULE": "COc1cc(OC)c2ccn(CCC(=O)N3CCc4ccccc4C3c3cc(Cl)ccc3OCC(=O)O)c2c1 (racemic)",
    "OBSERVED": 0.99
  }
]

Now look at this entry.
`O=C(O)COc1ccc(Cl)cc1[C@@H]1c2ccc(F)cc2CCN1C(=O)OCCc1ccccc1` tested on hCRTH2 receptor (Homo sapiens, UniProt Q9Y5Y4) gave log10 of IC50: 1.12
